target under test: Prostaglandin G/H synthase 2 (Ovis aries)
Sequence (P79208 whole entry, looked up): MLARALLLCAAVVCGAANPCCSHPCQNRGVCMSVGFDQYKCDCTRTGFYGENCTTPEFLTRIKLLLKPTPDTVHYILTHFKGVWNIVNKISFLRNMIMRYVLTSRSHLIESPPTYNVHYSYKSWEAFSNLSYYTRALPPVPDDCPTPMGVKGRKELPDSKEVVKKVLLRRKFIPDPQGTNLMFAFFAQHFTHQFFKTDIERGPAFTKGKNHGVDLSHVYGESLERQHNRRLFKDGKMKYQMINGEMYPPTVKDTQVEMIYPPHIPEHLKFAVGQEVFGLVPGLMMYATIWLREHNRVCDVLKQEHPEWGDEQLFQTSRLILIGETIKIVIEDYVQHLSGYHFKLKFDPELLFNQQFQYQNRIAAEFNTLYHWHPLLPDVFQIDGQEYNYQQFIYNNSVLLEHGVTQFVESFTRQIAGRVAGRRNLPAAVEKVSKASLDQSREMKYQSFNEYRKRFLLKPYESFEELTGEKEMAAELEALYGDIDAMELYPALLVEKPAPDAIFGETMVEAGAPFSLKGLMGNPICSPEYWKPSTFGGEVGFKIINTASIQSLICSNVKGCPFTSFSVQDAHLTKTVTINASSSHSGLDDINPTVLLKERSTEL
pIC50: −log10 of the molar value.
attribute measured: pIC50

CC(C)(O)[C@@H](O)CC[C@@H](C(=O)O)[C@H]1CC[C@@]2(C)C3=C(CC[C@]12C)[C@@]1(C)CCC(=O)C(C)(C)[C@@H]1CC3 [FOMITOPINIC ACID A] | 5.94

(I) CC(=O)O[C@@H]1CC[C@]2(C)C3=C(CC[C@H]2C1(C)C)[C@]1(C)CC[C@H]([C@@H](CCC=C(C)C)C(=O)O[C@@H]2OC[C@@H](O)[C@H](O)[C@H]2O)[C@@]1(C)CC3 [FOMITOSIDE F]
(II) CC(C)=CCC[C@@H](C(=O)O[C@@H]1OC[C@@H](O)[C@H](O)[C@H]1O)[C@H]1CC[C@@]2(C)C3=C(CC[C@]12C)[C@@]1(C)CCC(=O)C(C)(C)[C@@H]1CC3 [FOMITOSIDE C]
(III) C=C(CC[C@@H](C(=O)O[C@@H]1OC[C@@H](O)[C@H](O)[C@H]1O)[C@H]1CC[C@@]2(C)C3=C(CC[C@]12C)[C@@]1(C)CCC(=O)C(C)(C)[C@@H]1CC3)C(C)C [FOMITOSIDE D]
(IV) CC(=O)O[C@@H]1CC[C@]2(C)C3=C(CC[C@H]2C1(C)C)[C@]1(C)CC[C@H]([C@@H](C/C=C/C(C)(C)O)C(=O)O[C@@H]2OC[C@@H](O)[C@H](O)[C@H]2O)[C@@]1(C)CC3 [FOMITOSIDE E]
Exercise: Reorder: pIC50, max to min. Your reply should list the labels following the order given in the request.
Key: IV, I, III, II

---

target under test: Prostaglandin G/H synthase 1 (Ovis aries)
experimental protocol: Inhibition of COX1 from ram seminal vesicles at 10 ug/ml by liquid scintillation counter
attribute measured: inhibition (%)

C=C(CC[C@@H](C(=O)O[C@@H]1OC[C@@H](O)[C@H](O)[C@H]1O)[C@H]1CC[C@@]2(C)C3=C(CC[C@]12C)[C@@]1(C)CC[C@@H](OC(C)=O)C(C)(C)[C@@H]1CC3)C(C)C | 21.7

(1) CC(C)(O)[C@@H](O)CC[C@@H](C(=O)O)[C@H]1CC[C@@]2(C)C3=C(CC[C@]12C)[C@@]1(C)CCC(=O)C(C)(C)[C@@H]1CC3
(2) CC(=O)O[C@@H]1CC[C@]2(C)C3=C(CC[C@H]2C1(C)C)[C@]1(C)CC[C@H]([C@@H](CCC=C(C)C)C(=O)O[C@@H]2OC[C@@H](O)[C@H](O)[C@H]2O)[C@@]1(C)CC3 [FOMITOSIDE F]
(3) CC(=O)O[C@@H]1CC[C@]2(C)C3=C(CC[C@H]2C1(C)C)[C@]1(C)CC[C@H]([C@@H](C/C=C/C(C)(C)O)C(=O)O[C@@H]2OC[C@@H](O)[C@H](O)[C@H]2O)[C@@]1(C)CC3 [FOMITOSIDE E]
Exercise: Reorder: inhibition, max to min. Your reply should list the labels following the order given in the request.
Key: 3, 2, 1
(3: 57.2%, 2: 27.5%, 1: 18.1%)

---

target under test: Prostaglandin G/H synthase 1 (Ovis aries)
Sequence (P05979 whole entry): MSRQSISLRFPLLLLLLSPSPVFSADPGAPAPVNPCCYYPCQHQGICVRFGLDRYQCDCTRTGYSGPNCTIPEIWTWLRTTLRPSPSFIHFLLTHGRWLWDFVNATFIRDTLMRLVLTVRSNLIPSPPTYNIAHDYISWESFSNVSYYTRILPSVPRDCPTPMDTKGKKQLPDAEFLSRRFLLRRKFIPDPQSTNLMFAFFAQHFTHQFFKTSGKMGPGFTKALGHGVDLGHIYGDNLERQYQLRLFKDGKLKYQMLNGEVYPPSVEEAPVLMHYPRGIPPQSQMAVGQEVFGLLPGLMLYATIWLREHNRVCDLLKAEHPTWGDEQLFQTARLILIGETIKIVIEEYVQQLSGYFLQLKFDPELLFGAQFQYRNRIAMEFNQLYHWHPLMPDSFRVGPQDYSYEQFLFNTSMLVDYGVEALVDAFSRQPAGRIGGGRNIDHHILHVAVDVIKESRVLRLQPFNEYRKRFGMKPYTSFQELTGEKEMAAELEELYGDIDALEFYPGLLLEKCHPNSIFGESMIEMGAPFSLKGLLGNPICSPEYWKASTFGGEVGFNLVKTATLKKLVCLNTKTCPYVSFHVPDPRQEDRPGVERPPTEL
pIC50: −log10 of the molar value.
attribute measured: pIC50

C=C(CC[C@@H](C(=O)O[C@@H]1OC[C@@H](O)[C@H](O)[C@H]1O)[C@H]1CC[C@@]2(C)C3=C(CC[C@]12C)[C@@]1(C)CCC(=O)C(C)(C)[C@@H]1CC3)C(C)C [FOMITOSIDE D] | 2.48

(a) CC(C)=CCC[C@@H](C(=O)O[C@@H]1OC[C@@H](O)[C@H](O)[C@H]1O)[C@H]1CC[C@@]2(C)C3=C(CC[C@]12C)[C@@]1(C)CCC(=O)C(C)(C)[C@@H]1CC3 [FOMITOSIDE C]
(b) COC(=O)CC(C)(O)CC(=O)O[C@@H]1CC[C@]2(C)C3=C(CC[C@H]2C1(C)C)[C@]1(C)CC[C@H]([C@@H](CCC=C(C)C)C(=O)O[C@@H]2OC[C@@H](O)[C@H](O)[C@H]2O)[C@@]1(C)CC3 (stereo partly drawn) [FOMITOSIDE H]
Exercise: Lab note: record which item had the higher pIC50, a or b . Mark your selection by writing its label.
Key: b
